I'd be grateful if you could share measured pEC50 for these entries.
molecular target: TYK2 (Homo sapiens, UniProt P29597); construct: JAK1 (aa 850-1154) and TYK2 (aa 871-1187) are expressed with an N-terminally fused GST-tag; GST (N); assay: TYK2 kinase assay (HTRF, inhibition of phosphorylation of a synthetic peptide); settings: catalytic domain aa 871-1187, GST-tag; 13 μM ATP (Km); read-out: TYK2 kinase inhibitory activity (EC50)
Sequence (P29597 871-1187): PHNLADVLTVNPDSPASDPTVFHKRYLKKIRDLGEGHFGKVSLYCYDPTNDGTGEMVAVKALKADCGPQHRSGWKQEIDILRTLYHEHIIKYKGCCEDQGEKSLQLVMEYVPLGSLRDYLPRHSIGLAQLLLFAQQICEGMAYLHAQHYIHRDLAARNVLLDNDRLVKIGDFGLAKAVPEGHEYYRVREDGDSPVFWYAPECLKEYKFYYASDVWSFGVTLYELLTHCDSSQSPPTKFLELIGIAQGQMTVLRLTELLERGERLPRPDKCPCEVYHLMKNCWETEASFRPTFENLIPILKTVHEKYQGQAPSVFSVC
pEC50: −log10 of the molar value.

Please review the entries below; each comes with its answer.
{"compound": "N#CC1(C(=O)N2CCN(c3ncnc4[nH]ccc34)CCC23CC3)CC1 [Example 44]", "pEC50": "< 6.00"}
{"compound": "CC1CN(c2ncnc3[nH]ccc23)CC2(CC2)CN1C(=O)Nc1ccccc1 (centres unmarked) [Example 99]", "pEC50": "< 6.00"}
{"compound": "O=C(Cc1ccc(-c2nn[nH]n2)cc1)N1CCN(c2ncnc3[nH]ccc23)CC2(CC2)C1 [Example 77]", "pEC50": "6.00 to 7.00"}
{"compound": "COc1csc(C(=O)N2CCN(c3ncnc4[nH]ccc34)CC3(CC3)C2)c1 [Example 22]", "pEC50": "< 6.00"}
{"compound": "O=C(C1CCCCC1)N1CCCN(c2ncnc3[nH]ccc23)CC12CC2 [Example 93]", "pEC50": "6.00 to 7.00"}

For every listed record, write down its pEC50.
1. CN(C1CCCCC1)S(=O)(=O)N1CCN(c2ncnc3[nH]ccc23)CC2(CC2)C1 [Example 105]
2. CC(C)(C#N)C(=O)N1CCN(c2ncnc3[nH]ccc23)CC2(CC2)C1 [Example 11]

**Result**
< 6.00
< 6.00

**Query** # query: pEC50 of entry NS(=O)(=O)c1ccc(OCC(=O)N2CCN(c3ncnc4[nH]ccc34)CC3(CC3)C2)cc1 [Example 63]
**Result** > 7.00

* * *

Provide the reported EC50 of each item.
target: JAK1 (Homo sapiens); construct: JAK1 (aa 850-1154) and TYK2 (aa 871-1187) are expressed with an N-terminally fused GST-tag; GST (N); assay: JAK1 kinase assay (HTRF, inhibition of phosphorylation of a synthetic peptide); details: catalytic domain aa 850-1154, GST-tag; 7 μM ATP (Km); read-out: JAK1 kinase inhibitory activity (EC50)
Sequence (P23458 850-1154): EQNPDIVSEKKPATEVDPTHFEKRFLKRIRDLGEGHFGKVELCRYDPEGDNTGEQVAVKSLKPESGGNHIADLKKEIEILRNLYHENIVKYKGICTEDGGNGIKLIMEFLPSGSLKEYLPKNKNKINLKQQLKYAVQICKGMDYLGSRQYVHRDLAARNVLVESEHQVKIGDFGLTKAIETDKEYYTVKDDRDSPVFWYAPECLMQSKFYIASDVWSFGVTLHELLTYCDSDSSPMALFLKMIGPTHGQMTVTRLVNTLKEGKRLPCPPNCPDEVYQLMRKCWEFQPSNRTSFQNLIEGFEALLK

Worked set:
{"compound": "Cc1nnsc1C(=O)N1CCN(c2ncnc3[nH]ccc23)CC2(CC2)C1 [Example 146]", "EC50": "0.1 to 1 µM"}
{"compound": "CN1CCN(CC(=O)N2CCN(c3ncnc4[nH]ccc34)CC3(CC3)C2)C1=O [Example 82]", "EC50": "0.1 to 1 µM"}

I have 7 compounds here; please give me EC50 for each one.
1. CN(CCC#N)S(=O)(=O)N1CCN(c2ncnc3[nH]ccc23)CC2(CC2)C1 [Example 103]
2. Cc1sncc1C(=O)N1CCCN(c2ncnc3[nH]ccc23)CC12CC2 [Example 230]
3. CC1CN(c2ncnc3[nH]ccc23)CC2(CC2)CN1C(=O)c1ccccc1 (centres unmarked) [Example 284]
4. O=C(c1cncnc1)N1CCCN(c2ncnc3[nH]ccc23)CC12CC2 [Example 161]
5. Nc1nc(N2CCCN(Cc3ccccc3)C3(CC3)C2)c2cc[nH]c2n1 [Example 67]
6. Cc1[nH]ncc1C(=O)N1CCN(c2ncnc3[nH]ccc23)CC2(CC2)C1 [Example 206]
7. CC(=O)N1CCC(C(=O)N2CCN(c3ncnc4[nH]ccc34)CC3(CC3)C2)CC1 [Example 6]

**Result**
1: 0.1 to 1 µM; 2: 0.1 to 1 µM; 3: > 1 µM; 4: 0.1 to 1 µM; 5: > 1 µM; 6: 0.1 to 1 µM; 7: 0.1 to 1 µM

These data points were gathered from patent US9586961B2.
